# System: Calf thymus DNA
# methodNotes: Binding affinity to calf thymus DNA assessed as hypochromic effect by UV-vis spectrophotometric method relative to control
# Format: nucleic-acid assay
# Design: concentration or dose not given beside the values
# testSettings: Bos taurus
measuredProperty: Activity (%)
Numbers only, in %.

>>> resultnumber("CC(C)NC(=N)c1ccc2[nH]c(-c3ccc(Cn4cc(COc5ccc(-c6ccc(OCc7cn(Cc8ccc(-c9nc%10cc(C(=N)NC(C)C)ccc%10[nH]9)o8)nn7)cc6)cc5)nn4)o3)nc2c1")
8
>>> resultnumber("Cl.Cl.N=C(N)c1ccc2[nH]c(-c3ccc(Cn4cc(CCCc5cn(Cc6ccc(-c7nc8cc(C(=N)N)ccc8[nH]7)o6)nn5)nn4)o3)nc2c1")
13

Next:
Record "c1cc(-c2ccc(OCc3cn(Cc4ccc(-c5nc6cc(C7=NCCN7)ccc6[nH]5)o4)nn3)cc2)ccc1OCc1cn(Cc2ccc(-c3nc4cc(C5=NCCN5)ccc4[nH]3)o2)nn1" ; system Calf thymus DNA; Activity = 9

###

# Test system: Trypanosoma brucei
# methodNotes: Antitrypanosomal activity against Trypanosoma brucei 221 incubated for 48 hrs by resazurin based fluorescence assay
# Format: functional, organism-based
# testSettings: Trypanosoma brucei, 221, 48 h
Just a reminder that ties go to f: only IC90 strictly below 7 µM counts as t.

Previously resolved entries follow.
>>> assignedcategory("Fc1ccc2[nH]c(-c3ccc(Cn4cc(COCc5cn(Cc6ccc(-c7nc8cc(F)ccc8[nH]7)o6)nn5)nn4)o3)nc2c1")
"f"
>>> assignedcategory("Cl.Cl.c1cc2[nH]c(-c3ccc(Cn4cc(CCCc5cn(Cc6ccc(-c7nc8cc(C9=NCCN9)ccc8[nH]7)o6)nn5)nn4)o3)nc2cc1C1=NCCN1")
"t"
>>> assignedcategory("CC(C)NC(=N)c1ccc2[nH]c(-c3ccc(Cn4cc(CCCc5cn(Cc6ccc(-c7nc8cc(C(=N)NC(C)C)ccc8[nH]7)o6)nn5)nn4)o3)nc2c1.Cl.Cl")
"f"
>>> assignedcategory("CC(C)NC(=N)c1ccc2[nH]c(-c3ccc(Cn4cc(COc5ccc(OCc6cn(Cc7ccc(-c8nc9cc(C(=N)NC(C)C)ccc9[nH]8)o7)nn6)cc5)nn4)o3)nc2c1.Cl.Cl")
"t"
>>> assignedcategory("Cl.Cl.c1cc(OCc2cn(Cc3ccc(-c4nc5cc(C6=NCCN6)ccc5[nH]4)o3)nn2)ccc1OCc1cn(Cc2ccc(-c3nc4cc(C5=NCCN5)ccc4[nH]3)o2)nn1")
"t"
>>> assignedcategory("Clc1ccc2[nH]c(-c3ccc(Cn4cc(COCc5cn(Cc6ccc(-c7nc8cc(Cl)ccc8[nH]7)o6)nn5)nn4)o3)nc2c1")
"f"

Qu. For this compound, is IC90 lower than 7 µM? "Fc1ccc2[nH]c(-c3ccc(Cn4cc(CCCc5cn(Cc6ccc(-c7nc8cc(F)ccc8[nH]7)o6)nn5)nn4)o3)nc2c1"
Ans. f

Qu. In the record for "Cl.Cl.N=C(N)c1ccc2[nH]c(-c3ccc(Cn4cc(COCc5cn(Cc6ccc(-c7nc8cc(C(=N)N)ccc8[nH]7)o6)nn5)nn4)o3)nc2c1" , is IC90 less than 7 µM?
Ans. t

Qu. Report whether reported IC90 is lower than 7 µM (strictly) for "Clc1ccc2[nH]c(-c3ccc(Cn4cc(COc5ccc(-c6ccc(OCc7cn(Cc8ccc(-c9nc%10cc(Cl)ccc%10[nH]9)o8)nn7)cc6)cc5)nn4)o3)nc2c1"
Ans. f

Qu. Identify whether the compound "Clc1ccc2[nH]c(-c3ccc(Cn4cc(COc5ccc(OCc6cn(Cc7ccc(-c8nc9cc(Cl)ccc9[nH]8)o7)nn6)cc5)nn4)o3)nc2c1" records IC90 below 7 µM.
Ans. t

Qu. I wonder whether "Fc1ccc2[nH]c(-c3ccc(Cn4cc(COc5ccc(OCc6cn(Cc7ccc(-c8nc9cc(F)ccc9[nH]8)o7)nn6)cc5)nn4)o3)nc2c1" has IC90 below 7 µM. Can you tell?
Ans. t

Qu. For this compound, is IC90 lower than 7 µM? "CC(C)NC(=N)c1ccc2[nH]c(-c3ccc(Cn4cc(COCc5cn(Cc6ccc(-c7nc8cc(C(=N)NC(C)C)ccc8[nH]7)o6)nn5)nn4)o3)nc2c1"
Ans. f

###

# Test system: Poly(dA-dU)oligonucleotide
# methodNotes: Binding affinity to polyA-polyU dsRNA (unknown origin) assessed as change in melting temperature at 0.5 ratio of compound to RNA by spectrophotometric analysis
# Assay type: nucleic-acid assay
So I've got a bunch of compounds here, and I need their ΔTm values.
Answers are plain numbers, in °C.

Below: 3 compounds and their reported ΔTm.
>>> resultnumber("c1ccc2[nH]c(-c3ccc(Cn4cc(COc5ccc(OCc6cn(Cc7ccc(-c8nc9ccccc9[nH]8)o7)nn6)cc5)nn4)o3)nc2c1")
0
>>> resultnumber("Fc1ccc2[nH]c(-c3ccc(Cn4cc(CCCc5cn(Cc6ccc(-c7nc8cc(F)ccc8[nH]7)o6)nn5)nn4)o3)nc2c1")
2
>>> resultnumber("Clc1ccc2[nH]c(-c3ccc(Cn4cc(COc5ccc(OCc6cn(Cc7ccc(-c8nc9cc(Cl)ccc9[nH]8)o7)nn6)cc5)nn4)o3)nc2c1")
0

Here are 3 compounds. What values of ΔTm were reported for them?
1. Cl.Cl.N=C(N)c1ccc2[nH]c(-c3ccc(Cn4cc(CCCc5cn(Cc6ccc(-c7nc8cc(C(=N)N)ccc8[nH]7)o6)nn5)nn4)o3)nc2c1
2. c1ccc2[nH]c(-c3ccc(Cn4cc(COCc5cn(Cc6ccc(-c7nc8ccccc8[nH]7)o6)nn5)nn4)o3)nc2c1
3. Cl.Cl.c1cc(OCc2cn(Cc3ccc(-c4nc5cc(C6=NCCN6)ccc5[nH]4)o3)nn2)ccc1OCc1cn(Cc2ccc(-c3nc4cc(C5=NCCN5)ccc4[nH]3)o2)nn1

Ans.
1. 9.3
2. 0.6
3. 0

// for each compound below, give its ΔTm
1. c1ccc2[nH]c(-c3ccc(Cn4cc(CCCc5cn(Cc6ccc(-c7nc8ccccc8[nH]7)o6)nn5)nn4)o3)nc2c1
2. Fc1ccc2[nH]c(-c3ccc(Cn4cc(COc5ccc(OCc6cn(Cc7ccc(-c8nc9cc(F)ccc9[nH]8)o7)nn6)cc5)nn4)o3)nc2c1

Ans.
1: 0; 2: 0

Please go through the list and note ΔTm for each compound.
1. Cl.Cl.N=C(N)c1ccc2[nH]c(-c3ccc(Cn4cc(COCc5cn(Cc6ccc(-c7nc8cc(C(=N)N)ccc8[nH]7)o6)nn5)nn4)o3)nc2c1
2. Clc1ccc2[nH]c(-c3ccc(Cn4cc(COCc5cn(Cc6ccc(-c7nc8cc(Cl)ccc8[nH]7)o6)nn5)nn4)o3)nc2c1
3. CC(C)NC(=N)c1ccc2[nH]c(-c3ccc(Cn4cc(COCc5cn(Cc6ccc(-c7nc8cc(C(=N)NC(C)C)ccc8[nH]7)o6)nn5)nn4)o3)nc2c1

Ans.
3.3
0.6
1.6

###

# methodNotes: Binding affinity to polyA-polyU dsRNA (unknown origin) assessed as change in melting temperature at 0.1 ratio of compound to RNA by spectrophotometric analysis
# Format: nucleic-acid assay
Record form. Attribute: ΔTm. Fill in for each entry.
Give bare numbers, in °C.

>>> resultnumber("Cl.Cl.c1cc2[nH]c(-c3ccc(Cn4cc(CCCc5cn(Cc6ccc(-c7nc8cc(C9=NCCN9)ccc8[nH]7)o6)nn5)nn4)o3)nc2cc1C1=NCCN1")
1.6

Record ΔTm for all entries; do not skip any.
1. Clc1ccc2[nH]c(-c3ccc(Cn4cc(COc5ccc(OCc6cn(Cc7ccc(-c8nc9cc(Cl)ccc9[nH]8)o7)nn6)cc5)nn4)o3)nc2c1
2. c1ccc2[nH]c(-c3ccc(Cn4cc(CCCc5cn(Cc6ccc(-c7nc8ccccc8[nH]7)o6)nn5)nn4)o3)nc2c1
3. CC(C)NC(=N)c1ccc2[nH]c(-c3ccc(Cn4cc(CCCc5cn(Cc6ccc(-c7nc8cc(C(=N)NC(C)C)ccc8[nH]7)o6)nn5)nn4)o3)nc2c1.Cl.Cl
4. Cl.Cl.c1cc(OCc2cn(Cc3ccc(-c4nc5cc(C6=NCCN6)ccc5[nH]4)o3)nn2)ccc1OCc1cn(Cc2ccc(-c3nc4cc(C5=NCCN5)ccc4[nH]3)o2)nn1
5. Cl.Cl.c1cc2[nH]c(-c3ccc(Cn4cc(COCc5cn(Cc6ccc(-c7nc8cc(C9=NCCN9)ccc8[nH]7)o6)nn5)nn4)o3)nc2cc1C1=NCCN1

Ans.
1: 0; 2: 0; 3: 0.9; 4: 2.7; 5: 3.5

###

# Tested on: Poly(dA-dU)oligonucleotide
# methodNotes: Binding affinity to polyA-polyU dsRNA (unknown origin) assessed as binding constant by UV-vis spectrophotometric method
# Assay type: nucleic-acid assay
Assign log Ks to each entry below.

These solved cases illustrate the format of a correct answer.
>>> result("Fc1ccc2[nH]c(-c3ccc(Cn4cc(CCCc5cn(Cc6ccc(-c7nc8cc(F)ccc8[nH]7)o6)nn5)nn4)o3)nc2c1")
4.94
>>> result("CC(C)NC(=N)c1ccc2[nH]c(-c3ccc(Cn4cc(COCc5cn(Cc6ccc(-c7nc8cc(C(=N)NC(C)C)ccc8[nH]7)o6)nn5)nn4)o3)nc2c1")
6.16

Consider now this further molecule.
Input "Cl.Cl.c1cc2[nH]c(-c3ccc(Cn4cc(COCc5cn(Cc6ccc(-c7nc8cc(C9=NCCN9)ccc8[nH]7)o6)nn5)nn4)o3)nc2cc1C1=NCCN1" . Output log Ks: 7.17
